- TESTED_SYSTEM: Cannabinoid receptor 1 (Homo sapiens)
- EXPERIMENT_NOTES: Binding affinity against human Cannabinoid receptor 1 using CHO-hCB1 transfected cell membrane and [3H]CP-55940 as radioligand at 10 uM
If the reported inhibition equals or exceeds 8%, assign true (1). If not, assign false (0).

{"COMPOUND": "CCCCCCCCCCCCCCCC(=O)OCCBr", "GROUP": "false (0)"}

query: inhibition >= 8% for "CCCCCCCCCCCCCCCC(=O)OCc1ccccc1" ?
result: false (0)

query: Could you please find out whether "CCCCCCCCCCCCCCCC(=O)OC(C)(C)C" has inhibition that meets 8% or exceeds it?
result: true (1)

query: Check if inhibition >= 8% (inclusive). Item: "CCCCCCCCCCCCCCCC(=O)NCCO"
result: true (1)

query: Reported inhibition at or above 8%? CCCCCCCCCCCCCCCC(=O)OC1CCCCC1 [CYCLOHEXYL PALMITATE]
result: true (1)

query: Hello, I need to know if "CCCCCCCCCCCCCCCC(=O)NC" has measured inhibition not below 8%. Thanks!
result: false (0)

----------
Please provide measured inhibition for the entries that follow.
- TESTED_SYSTEM: Fatty-acid amide hydrolase 1 (Rattus norvegicus) (UniProt P97612)
- Sequence (P97612 whole entry): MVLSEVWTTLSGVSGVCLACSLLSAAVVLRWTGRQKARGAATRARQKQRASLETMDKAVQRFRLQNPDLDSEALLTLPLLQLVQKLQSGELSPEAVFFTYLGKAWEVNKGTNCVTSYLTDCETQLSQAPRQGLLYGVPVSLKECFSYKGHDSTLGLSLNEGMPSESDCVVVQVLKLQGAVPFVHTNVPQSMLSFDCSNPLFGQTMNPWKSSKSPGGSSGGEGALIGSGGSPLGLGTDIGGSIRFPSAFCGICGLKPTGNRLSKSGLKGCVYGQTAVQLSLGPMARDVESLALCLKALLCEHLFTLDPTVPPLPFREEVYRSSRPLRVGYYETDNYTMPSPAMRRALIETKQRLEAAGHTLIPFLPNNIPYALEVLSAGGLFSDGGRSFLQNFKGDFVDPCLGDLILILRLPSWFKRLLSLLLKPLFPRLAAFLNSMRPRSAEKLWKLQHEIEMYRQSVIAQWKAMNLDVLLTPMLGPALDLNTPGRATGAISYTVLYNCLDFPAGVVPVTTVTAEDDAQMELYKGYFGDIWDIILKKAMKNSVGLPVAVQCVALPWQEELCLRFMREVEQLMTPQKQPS
- EXPERIMENT_NOTES: Inhibition of fatty acid amide hydrolase (FAAH) from rat brain homogenates at 100 uM
- Format: tissue-based
One number for each entry, in %.

{"COMPOUND": "CCCCCCCCCCCCCCCC(=O)OC", "RECORDED_VALUE": 69}
{"COMPOUND": "CCCCCCCCCCCCCCCC(=O)NC1CCCCC1", "RECORDED_VALUE": 11}
{"COMPOUND": "CCCCCCCCCCCCCCCC(=O)OCCBr", "RECORDED_VALUE": 31}
{"COMPOUND": "CCCCCCCCCCCCCCCC(=O)OC1CCCCC1 [CYCLOHEXYL PALMITATE]", "RECORDED_VALUE": 36}
{"COMPOUND": "CCCCCCCCCCCCCCCC(=O)NC(C)C", "RECORDED_VALUE": 52}
{"COMPOUND": "CCCCCCCCCCCCCCCC(=O)OCCCl", "RECORDED_VALUE": 45}
{"COMPOUND": "CCCCCCCCCCCCCCCNC(=O)CCO", "RECORDED_VALUE": 8}
{"COMPOUND": "CCCCCCCCCCCCCCCC(=O)OCc1ccccc1", "RECORDED_VALUE": 24}
{"COMPOUND": "C=CCOC(=O)CCCCCCCCCCCCCCC", "RECORDED_VALUE": 36}
{"COMPOUND": "CCCCCCCCCCCCCCCC(=O)NCCO", "RECORDED_VALUE": 68}

Please examine the following record next.
Readout inhibition for "CCCCCCCCCCCCCCCC(=O)NC" , test system Fatty-acid amide hydrolase 1 (Rattus norvegicus) (UniProt P97612), was 68

----------
- TESTED_SYSTEM: N-acylethanolamine-hydrolyzing acid amidase (Rattus norvegicus)
- EXPERIMENT_NOTES: Inhibition of N-palmitoylethanolamine-selective acid amidase (NPAA) from rat lung homogenates at 100 uM
Class label 1: inhibition at least 50%. Class label 0: inhibition below 50%.

query: Does inhibition meet or surpass 50% for "C=CCOC(=O)CCCCCCCCCCCCCCC" ?
result: label 0

query: Hello, I need to know if "CCCCCCCCCCCCCCCC(=O)NC" has measured inhibition not below 50%. Thanks!
result: label 0
